# Tested on: Key Grass and Sedge Weeds as well as Grass Crops
# assay text: Post-Emergent Test II: postemergent herbicidal activity, visual rating after 14 d (Table 8)
# Assay type: in vivo
# study conditions: post-emergence, 336 h, maize, corn (Zea mays), 140 g ai/ha, read-out: Visual Growth Reduction (%) 14 Days After Application ZEAMX
# Description: Herbicidal evaluations were made visually on a scale of 0 to 100 where 0 represents no activity and 100 represents complete plant death. […] A weighed amount, determined by the highest rate to be tested, of each test compound was placed in a 25 mL glass vial and was dissolved in 4 mL of a 97:3 v/v mixture of acetone and DMSO to obtain concentrated stock solutions. […]
Below, each entry is listed alongside its reported pest or weed control at 140 g/ha.
endpoint label: pest or weed control at 140 g/ha

COC(=O)c1nc(-c2ccc3c(c2)OC(C)(C)O3)c(F)c(N)c1Cl 95 to 100%
Nc1c(F)c(-c2ccc(Br)c3c2OC(F)(F)O3)nc(C(=O)O)c1Cl 60 to 74%
COC(=O)c1nc(-c2cc3c(cc2F)OC(F)(F)O3)nc(N)c1Cl 75 to 84%
COc1c(C(=O)O)nc(-c2cc3c(cc2F)OC(F)(F)O3)c(F)c1N 60 to 74%
Cc1c(-c2ccc3c(c2)OC(F)(F)O3)nc(C(=O)O)c(Cl)c1N 60 to 74%
COC(=O)c1nc(-c2cc3c(cc2F)OC(F)(F)O3)c(F)c(N)c1Cl 75 to 84%
Nc1c(F)c(-c2ccc(I)c3c2OC(F)(F)O3)nc(C(=O)O)c1Cl 0 to 29%
COC(=O)c1nc(-c2ccc(Cl)c3c2OC(F)(F)O3)c(F)c(N)c1Cl 95 to 100%
COC(=O)c1nc(-c2ccc3c(c2F)OC(F)(F)O3)c(F)c(N)c1Cl 75 to 84%
COC(=O)c1nc(-c2ccc(F)c3c2OC(F)(F)O3)c(F)c(N)c1Cl 0 to 29%
COc1cc(-c2nc(C(=O)O)c(Cl)c(N)c2F)cc2c1OCO2 0 to 29%
